test: growth suppression of beta-catenin knockout HCT116, pilot screen, human colon tumor cells (AID 823); settings: CellTiter-Glo, 60 h, at 10 µM, active compounds read low;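 also: 0% = wells killed by 20 µM Hyamine and 100% = untreated DMSO cell wells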
Results filed as inconclusive are left out.
quantity name: viability (%)
One number for each entry, in %.

Below, each entry is followed by its recorded viability result.
CCc1ccc(Nc2cc(C)nc3nc(C)nn23)cc1 | 96.8
C=CCn1c(C(C)NC(=O)C(C)(C)C)nc2ccccc21 (centres undefined) | 94.8
CCN1CCN(CC(=O)Nc2ccccc2)C(=O)C1=O | 103
Cn1c(=O)c2c(nc(NCCc3ccccc3)n2Cc2ccc(F)cc2)n(C)c1=O | 69.8

Provide each entry's viability from the list below.
1. CCO/C=N/c1c(C#N)c(CC#N)nn1-c1ccccc1
2. Clc1ccc(Sc2oc(/C=N/n3cnnc3)cc2Br)cc1
3. O=C1CC(c2ccc(S(=O)(=O)NCc3ccncc3)cc2)CN1 (centres undefined)
4. CCN(CC)c1cc(C)c2cc(NC(=O)CNC(C)=O)ccc2n1
5. COC(=O)c1ccccc1NC(=O)C1CCCN(c2nnc(-n3cccc3)s2)C1 (centres undefined)
6. O=C(O)CC1Sc2ccccc2NC1=O (centres undefined)

1. 94.6
2. 27.6
3. 99.7
4. 90
5. 86.2
6. 90.2
